target: hSK2 (Homo sapiens, UniProt Q9H2S1); construct: host or cells: cells expressing SK channels; assay: Assay for compound activity towards hSK channels (86Rb+ efflux); assay type: cell-based; details: 86Rb+ efflux stimulated with calcium ionophore; drug 0.01 to 30 μM in EBSS; read-out: hSK2 Inhibitory Activity
pIC50: −log10 of the molar value.
valueType: pIC50

Query :: Lookup: pIC50 / hSK2 (Homo sapiens, UniProt Q9H2S1) / `COc1ccc2c(c1)nc(-c1cccc(Nc3cnccn3)n1)n2C`
Result :: 6.00 to 7.00

Query :: Again, but for `Nc1ccc2[nH]c(-c3cccc(-c4nc5cc(N)ccc5[nH]4)n3)nc2c1`
Result :: > 7.00

Query :: Again, but for `CN(C)c1ccc2[nH]c(-c3cccc(-c4nc5cc(N(C)C)ccc5[nH]4)n3)nc2c1`
Result :: 4.52 to 5.52

Query :: Again, but for `Clc1ccc2[nH]c(-c3cccc(-c4nc5cc(Cl)ccc5[nH]4)n3)nc2c1`
Result :: 4.52 to 5.52

Query :: Again, but for `Cn1c(-c2cccc(-c3nc4ccccc4n3C)n2)nc2ccccc21`
Result :: 6.00 to 7.00

Query :: Again, but for `COc1ccc2[nH]c(-c3cccc(-c4ccccn4)n3)nc2c1`
Result :: > 7.00

Query :: Again, but for `COc1ccc2[nH]c(-c3cccc(-c4nc5cc(OC)ccc5[nH]4)n3)nc2c1`
Result :: 5.52 to 6.00

Query :: Again, but for `c1ccc(-c2cccc(-c3nc4ccccc4[nH]3)n2)nc1`
Result :: > 7.00

Query :: Again, but for `c1ccc(-c2cccc(-c3nc4cc5c(cc4[nH]3)OCCO5)n2)nc1`
Result :: 6.00 to 7.00

Query :: Again, but for `O=[N+]([O-])c1ccc2[nH]c(-c3cccc(-c4nc5cc([N+](=O)[O-])ccc5[nH]4)n3)nc2c1`
Result :: 4.52 to 5.52

Query :: Again, but for `Clc1ccc2[nH]c(-c3cccc(-c4ccccn4)n3)nc2c1`
Result :: > 7.00

Query :: Again, but for c1cc(-c2nc3ccccc3[nH]2)nc(-c2nc3ccccc3[nH]2)c1 [2,6-Bis(1H-benzimidazol-2-yl) pyridine]
Result :: > 7.00

Query :: Again, but for `Cn1c(-c2cccc(-c3ccccn3)n2)nc2ccccc21`
Result :: > 7.00

Query :: Again, but for `Cn1c(-c2cccc(-c3ccccn3)n2)nc2cc(F)ccc21`
Result :: 6.00 to 7.00

Query :: Again, but for `CCOC(=O)c1ccc2nc(-c3cccc(-c4ccccn4)n3)[nH]c2c1`
Result :: > 7.00

Query :: Again, but for `COc1ccc2[nH]c(-c3cccc(-c4ccc(C)cn4)n3)nc2c1`
Result :: 4.52 to 5.52

Query :: Again, but for `c1ccc(-c2cccc(-c3nc4cc5c(cc4[nH]3)OCO5)n2)nc1`
Result :: > 7.00

Query :: Again, but for `Fc1ccc2[nH]c(-c3cccc(-c4nc5cc(F)ccc5[nH]4)n3)nc2c1`
Result :: 6.00 to 7.00

Query :: Again, but for `FC(F)(F)c1ccc2[nH]c(-c3cccc(-c4nc5cc(C(F)(F)F)ccc5[nH]4)n3)nc2c1`
Result :: 4.52 to 5.52

Query :: Again, but for `COc1ccc2c(c1)nc(-c1cccc(-c3ccccn3)n1)n2C`
Result :: > 7.00

Query :: Again, but for `Nc1ccc2[nH]c(-c3cccc(-c4nc5c(N)cccc5[nH]4)n3)nc2c1`
Result :: > 7.00

Query :: Again, but for `Nc1ccc2[nH]c(-c3cccc(-c4ccccn4)n3)nc2c1`
Result :: > 7.00

Query :: Again, but for `c1ccc(-c2cccc(-c3cn4ccccc4n3)n2)nc1`
Result :: 6.00 to 7.00

Query :: Again, but for `COc1cc2nc(-c3cccc(-c4ccccn4)n3)[nH]c2cc1OC`
Result :: > 7.00

Query :: Again, but for `Cc1cc2nc(-c3cccc(-c4ccccn4)n3)[nH]c2cc1C`
Result :: > 7.00

Query :: Again, but for `Cn1c(-c2cccc(-c3ccccn3)n2)nc2ccc(N)cc21`
Result :: > 7.00

Query :: Again, but for `Fc1ccc2[nH]c(-c3cccc(-c4ccccn4)n3)nc2c1`
Result :: > 7.00

Query :: Again, but for `Cc1ccc2nc(-c3cccc(-c4ccccn4)n3)[nH]c2c1C`
Result :: > 7.00

Query :: Again, but for `Fc1cc2nc(-c3cccc(-c4ccccn4)n3)[nH]c2cc1F`
Result :: > 7.00

Query :: Again, but for `COc1ccc2c(c1)nc(-c1cccc(N(C)c3ccccn3)n1)n2C`
Result :: 4.52 to 5.52

Query :: Again, but for `FC(F)(F)c1ccc2[nH]c(-c3cccc(-c4ccccn4)n3)nc2c1`
Result :: > 7.00
